The reported measurements were obtained from patent US5084468A.

- System: dd strain male mice
- Format: in vivo
- Assay conditions: intraperitoneal, 14 days observation
Recorded metric: Acute Toxicity (MLD), minimum lethal dose (mg/kg)
The response must be a number in mg/kg with no trailing unit.

query: Which Acute Toxicity (MLD), minimum lethal dose is reported for this molecule? COC(=O)C1(C)Nc2c(O)cc3c(c2C1=O)C(CBr)CN3C(=O)c1cc2cc(NC(=O)c3cc4ccccc4o3)ccc2[nH]1 (stereo not drawn) [Compound 46]
result: 0.63

query: Same again, this time with COC(=O)C1(C)Nc2c(O)cc3c(c2C1=O)C(CBr)CN3C(=O)/C=C/c1ccc(OC)c(OC)c1 (stereo not drawn) [Compound 30]
result: 0.082

query: Then what about the molecule COC(=O)C1(C)Nc2c(O)cc3c(c2C1=O)C(CBr)CN3C(=O)/C=C/c1ccc([N+](=O)[O-])cc1 (stereo not drawn) [Compound 41] ?
result: 1.3

query: Further, for COC(=O)C1(C)Nc2c(O)cc3c(c2C1=O)C(CBr)CN3C(=O)c1cc2cc(OC)ccc2[nH]1 (stereo not drawn) [Compound 3] ?
result: 0.063

query: Then COC(=O)C1(C)Nc2c(O)cc3c(c2C1=O)C(CBr)CN3C(=O)COc1ccccc1 (stereo not drawn) [Compound 15] ?
result: 4.0

query: Try this molecule too: COC(=O)C1(C)Nc2c(O)cc3c(c2C1=O)C(CBr)CN3C(C)=O (stereo not drawn) [Compound 22]
result: 13

query: Follow-up item: COC(=O)C1(C)Nc2c(O)cc3c(c2C1=O)C(CBr)CN3C(=O)/C=C/c1cccc(OC(C)=O)c1 (stereo not drawn) [Compound 35]
result: 0.25

query: Would you mind doing COC(=O)C1(C)NC2=C(C1=O)C13CC1CN(C(=O)c1cc4cc(NC(=O)OC(C)(C)C)ccc4[nH]1)C3=CC2=O (stereo not drawn) [Compound 32] as well?
result: 0.25

query: Also COC(=O)C1(C)Nc2c(O)cc3c(c2C1=O)C(CBr)CN3C(=O)C1Cc2ccccc2N1 (stereo not drawn) [Compound 31] ?
result: 20

query: Also need COC(=O)C1(C)Nc2c(O)cc3c(c2C1=O)C(CBr)CN3C(=O)/C=C/c1ccc(OC)cc1 (stereo not drawn) [Compound 38] , thanks.
result: 0.063

query: What about COC(=O)C1(C)Nc2c(O)cc3c(c2C1=O)C(CBr)CN3C(=O)c1cc2cc(OC)ccc2o1 (stereo not drawn) [Compound 34] ?
result: 0.063

query: Similarly, COC(=O)C1(C)Nc2c(O)cc3c(c2C1=O)C(CBr)CN3C(=O)/C=C/c1ccc(NC(=O)OCc2ccccc2)cc1 (stereo not drawn) [Compound 36] ?
result: 1.3

query: Could you do the same for COC(=O)C1(C)Nc2c(O)cc3c(c2C1=O)C(CBr)CN3C(=O)c1cc2cc(OC)c(OC)cc2[nH]1 (stereo not drawn) [Compound 24] , please?
result: 0.25

query: Would you mind doing COC(=O)C1(C)Nc2c(O)cc3c(c2C1=O)C(CBr)CN3C(=O)/C=C/c1ccc(C=O)cc1 (stereo not drawn) [Compound 42] as well?
result: 2.5

query: One more molecule: COC(=O)C1(C)Nc2c(O)cc3c(c2C1=O)C(CBr)CN3C(=O)c1cc2cc(NC(=O)c3cc4ccccc4[nH]3)ccc2[nH]1 (stereo not drawn) [Compound 45]
result: 0.63

query: Repeat for the following molecule: COC(=O)C1(C)Nc2c(O)cc3c(c2C1=O)C(CBr)CN3C(=O)/C=C/c1cccc(OC)c1 (stereo not drawn) [Compound 28]
result: 0.16

query: And what about the molecule COC(=O)C1(C)Nc2c(O)cc3c(c2C1=O)C(CBr)CN3C(=O)c1cc2ccccc2o1 (stereo not drawn) [Compound 4] ?
result: 0.25

query: Also COC(=O)C1(C)Nc2c(O)cc3c(c2C1=O)C(CBr)CN3C(=O)/C=C/c1ccc(N(C)C)cc1 (stereo not drawn) [Compound 40] , if possible.
result: 0.31

query: Next record, please: COC(=O)C1(C)Nc2c(O)cc3c(c2C1=O)C(CBr)CN3C(=O)/C=C/c1ccccc1 (stereo not drawn) [Compound 7]
result: 1.0

query: Note, next up: COC(=O)C1(C)Nc2c(O)cc3c(c2C1=O)C(CBr)CN3C(=O)CNc1ccccc1 (stereo not drawn) [Compound 19]
result: 2.5

query: And COC(=O)C1(C)Nc2c(O)cc3c(c2C1=O)C(CBr)CN3C(=O)CCc1ccc(OC)c(OC)c1 (stereo not drawn) [Compound 39] ?
result: 1.3

query: Again, but for COC(=O)C1(C)Nc2c(O)cc3c(c2C1=O)C(CBr)CN3C(=O)c1cc2ccccc2[nH]1 (stereo not drawn) [Compound 2]
result: 0.25

query: Please answer likewise for COC(=O)C1(C)Nc2c(O)cc3c(c2C1=O)C(CBr)CN3C(=O)c1cc2ccccc2s1 (stereo not drawn) [Compound 26]
result: 2.2

query: Next up: COC(=O)C1(C)Nc2c(O)cc3c(c2C1=O)C(CBr)CN3C(=O)c1cc2cc(OC)c(OCc3ccccc3)c(OC)c2[nH]1 (stereo not drawn) [Compound 55]
result: 0.25
